- Method notes: Mouse pharmacokinetics study (intravenous and oral)
- Format: in vivo
- Test parameters: mouse, plasma; CD-1 mice, PO 25 mg/kg
- Text: The test articles were formulated in […] Hydroxypropyl-beta-cyclodextrin, either as a clear solution or fine suspension.
Observable: Tmax (h)
One number for each entry, in h.

- Compound structure string: "Cc1cc(F)c(NC(=O)c2cc(C(C)(C)C#N)ccn2)cc1C1=Cc2cnc(NC3COC3)nc2N2CCN=C12"
  Unit abbrev: "h"
  Tmax: 2
- Compound structure string: "Cc1ncc(Nc2ncc3c(n2)N2CCN=C2C(c2cc(NC(=O)c4cc(C(F)(F)F)ccn4)ccc2C)=C3)s1"
  Unit abbrev: "h"
  Tmax: 1.67
- Compound structure string: "Cc1cc(Nc2ncc3c(n2)N2CCN=C2C(c2cc(NC(=O)c4cc(C(F)(F)F)ccn4)ccc2C)=C3)sn1"
  Unit abbrev: "h"
  Tmax: 1.67

Name the reported Tmax value associated with the molecule Cc1ccc(NC(=O)c2cc(C(C)(C)C#N)ccn2)cc1C1=Cc2cnc(Nc3cnn(C)c3)nc2N2CCN=C12
2
